- Target: UniProtKB P11802
- Sequence (P11802 whole entry, the tested form may be a part): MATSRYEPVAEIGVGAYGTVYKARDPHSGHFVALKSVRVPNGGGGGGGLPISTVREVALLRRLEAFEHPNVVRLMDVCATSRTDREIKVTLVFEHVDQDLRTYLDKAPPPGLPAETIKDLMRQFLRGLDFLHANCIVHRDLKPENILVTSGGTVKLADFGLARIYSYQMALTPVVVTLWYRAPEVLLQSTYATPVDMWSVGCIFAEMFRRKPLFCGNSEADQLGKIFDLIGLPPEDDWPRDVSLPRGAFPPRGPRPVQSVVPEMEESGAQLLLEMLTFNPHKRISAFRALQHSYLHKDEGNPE
- Measurement protocol: Kinase Assay: The CDK4 and CDK1 inhibitory activity of the CDK4/6-FLT3 inhibitors was determined with a filtration kinase assay. The compounds, kinase and substrate diluted in the kinase buffer (20 mM Tris, pH7.4, 50 mM NaCl, 1 mM DTT, 0.1% BSA) were sequentially added to a 96-well Multiscreen HTS filtration plate (Millipore). The final 100 μL reaction mixture in each well contained 0.3 μg of CDK4/Cyclin D1 or CDK1/Cyclin B (Cell Signaling Technology), 1 μg of Rb fragment (aa773-928, Millipore) for the CDK4 assay or 5 μg of histone H1 for the CDK1 assay and 1 μCi of [33P]-ATP. The mixture was incubated at room temperature for 1 hour. The proteins in the reaction were then precipitated and washed with cold TCA solution using an aspiration/filtration vacuum system. The plates were dried at room temperature, and the retained radioactivity was measured by scintillation counting.
Experimental readout: pIC50
pIC50 here: minus log base 10 of the concentration, concentration in moles per litre.

Q. Param readout = pIC50; param system = UniProtKB P11802; param query = C[C@H]1CC[C@H](n2c3cnccc3c3cnc(Nc4ccc5c(n4)C(O)CN(CCO)C5)nc32)CC1 (stereo partly specified) ; response: value
A. 7.72
